test.target: SRSF protein kinase 1 (Homo sapiens) (UniProt Q96SB4)
Sequence (Q96SB4 whole entry): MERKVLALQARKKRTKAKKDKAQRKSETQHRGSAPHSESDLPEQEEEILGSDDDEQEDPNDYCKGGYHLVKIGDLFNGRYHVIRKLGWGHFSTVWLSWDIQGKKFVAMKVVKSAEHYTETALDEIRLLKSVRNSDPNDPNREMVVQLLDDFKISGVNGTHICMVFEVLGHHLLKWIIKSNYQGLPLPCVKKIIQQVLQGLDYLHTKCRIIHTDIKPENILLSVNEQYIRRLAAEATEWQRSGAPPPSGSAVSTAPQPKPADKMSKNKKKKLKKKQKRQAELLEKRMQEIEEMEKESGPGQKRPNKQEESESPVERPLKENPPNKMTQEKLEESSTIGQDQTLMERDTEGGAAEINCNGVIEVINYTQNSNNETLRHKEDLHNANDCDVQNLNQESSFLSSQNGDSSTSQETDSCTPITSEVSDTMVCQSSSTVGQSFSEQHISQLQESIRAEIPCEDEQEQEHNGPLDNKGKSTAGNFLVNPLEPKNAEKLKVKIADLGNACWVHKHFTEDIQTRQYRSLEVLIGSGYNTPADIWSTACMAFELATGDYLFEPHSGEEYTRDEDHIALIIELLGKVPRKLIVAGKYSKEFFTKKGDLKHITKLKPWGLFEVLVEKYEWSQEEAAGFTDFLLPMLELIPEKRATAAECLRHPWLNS
experiment.notes: Inhibition of SRPK1 assessed as residual enzyme activity at 10 uM relative to untreated control
readout.type: Activity (%)

{"columns": ["chemical.structure", "readout.units", "Activity"],
 "data": [
  ["O=Cc1c[nH]c2c1ccc1c3ccccc3[nH]c12", "%", 84],
  ["c1ccc2c(c1)[nH]c1c3cc[nH]c3ccc21", "%", 94],
  ["c1ccc2c(c1)[nH]c1c2ccc2cc[nH]c21", "%", 90],
  ["O=Cc1c[nH]c2ccc3c4ccccc4[nH]c3c12", "%", 93]
]}

###

test.target: Mitogen-activated protein kinase 3 (Homo sapiens)
experiment.notes: Inhibition of ERK1 assessed as residual enzyme activity at 10 uM relative to untreated control
readout.type: Activity (%)

{"columns": ["chemical.structure", "readout.type", "readout.units", "val"],
 "data": [
  ["c1ccc2c(c1)[nH]c1c2ccc2cc[nH]c21", "Activity", "%", 108],
  ["O=Cc1c[nH]c2ccc3c4ccccc4[nH]c3c12", "Activity", "%", 95],
  ["O=Cc1c[nH]c2c1ccc1c3ccccc3[nH]c12", "Activity", "%", 87],
  ["c1ccc2c(c1)[nH]c1c3cc[nH]c3ccc21", "Activity", "%", 97]
]}
